# Tested on: OVCAR-5 ovarian
# Method description: NCI tumour cell line growth inhibition, 48 h
Measured property: GI50

INSERT INTO assay_data (molecule, test_target, result) VALUES
  ('COc1cc(Nc2cn[nH]c2-c2ccc(Cl)cc2)cc(OC)c1OC', 'OVCAR-5 ovarian', '15900 nM'),
  ('Cc1c2cccnc2c(C)c2c1c1cc(CO)ccc1n2C', 'OVCAR-5 ovarian', '618 nM'),
  ('COc1ccc(C2CC(c3cccc(Nc4ccncc4)c3)=NN2c2cc(Cl)cc(Cl)c2)cc1 (stereo unspecified)', 'OVCAR-5 ovarian', '2230 nM'),
  ('C=CC1CC12C(=O)C1OC2(C)C2C(=O)c3cc4ccccc4cc3C(=O)C12 (stereo unspecified)', 'OVCAR-5 ovarian', '61200 nM'),
  ('O=[N+]([O-])c1ccc(C=C2C(Cl)=C(Cl)C(Cl)=C2Cl)cc1', 'OVCAR-5 ovarian', '3300 nM'),
  ('CC(C)(C)C(=O)OCOP(=O)(OCOC(=O)C(C)(C)C)C1CCCN(O)C1=O (stereo unspecified)', 'OVCAR-5 ovarian', '2010 nM'),
  ('C[As](C)SC1OC(CO)C(O)C1O (stereo unspecified)', 'OVCAR-5 ovarian', '864 nM'),
  ('CC(O)C(N=Cc1ccccc1[O-])C(=O)[O-].CC(O)C(N=Cc1ccccc1[O-])C(=O)[O-].[Co+2] (stereo unspecified)', 'OVCAR-5 ovarian', '> 100000 nM'),
  ('O=C(Nc1ccc(OS(=O)(=O)c2ccccc2)cc1)C12CC3CC(CC(C3)C1)C2', 'OVCAR-5 ovarian', '> 100000 nM'),
  ('Cc1ccc(C(SCC(N)C(=O)O)(c2ccccc2)c2ccc(C)cc2)cc1 (stereo unspecified)', 'OVCAR-5 ovarian', '1110 nM'),
  ('CC/C(=C(/c1ccc(OCCN(C)C)cc1)c1ccc(OC(=O)CCCCC(=O)c2c(C)[nH]c(/C=C3\N=C(c4ccc[nH]4)C=C3OC)c2C)cc1)c1ccccc1', 'OVCAR-5 ovarian', '10600 nM');
